Reported pKi against Amine oxidase [flavin-containing] B (Homo sapiens), gathered from multiple publications, appears below.
Sequence (P27338 whole entry): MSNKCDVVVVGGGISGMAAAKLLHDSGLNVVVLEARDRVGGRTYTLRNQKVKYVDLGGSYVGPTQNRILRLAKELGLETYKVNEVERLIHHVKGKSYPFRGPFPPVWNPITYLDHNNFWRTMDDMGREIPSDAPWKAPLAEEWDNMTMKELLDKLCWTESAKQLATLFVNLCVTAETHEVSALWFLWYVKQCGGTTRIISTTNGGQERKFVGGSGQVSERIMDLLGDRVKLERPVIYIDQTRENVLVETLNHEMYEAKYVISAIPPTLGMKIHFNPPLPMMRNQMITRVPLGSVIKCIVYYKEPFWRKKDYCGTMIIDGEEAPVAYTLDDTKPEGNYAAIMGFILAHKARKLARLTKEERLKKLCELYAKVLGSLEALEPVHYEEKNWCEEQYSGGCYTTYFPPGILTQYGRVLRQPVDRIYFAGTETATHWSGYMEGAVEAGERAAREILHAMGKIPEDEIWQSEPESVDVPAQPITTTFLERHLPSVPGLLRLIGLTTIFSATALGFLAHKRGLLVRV
Numbers only, as −log10 of the molar value.

Here are 8 molecules together with their reported answers.
- molecular.string: "NCCCN(CCCC=Nc1cc(O)c2ccccc2c1O)Cc1ccccc1"
  pKi: 4.92
- molecular.string: "NNCCc1ccc(NC(=O)CCCc2ccccc2)cc1"
  pKi: 5.19
- molecular.string: "CC(C)=Cc1c(N=CCCCN(CCCN)Cc2ccccc2)c(O)c2ccccc2c1O"
  pKi: 4.24
- molecular.string: "Cn1c(C(=O)NN=Cc2ccc([N+](=O)[O-])cc2)cc(Br)c1Br"
  pKi: 5.16
- molecular.string: "COc1ccc(C=NNC(=O)c2cc(Br)c(Br)n2C)cc1OC"
  pKi: 5.47
- molecular.string: "Cn1c(C(=O)NN=Cc2ccc(O)c(O)c2)cc(Br)c1Br"
  pKi: 5.21
- molecular.string: "O=C(NN=Cc1ccc(Cl)cc1Cl)c1cc(Br)c(Br)[nH]1"
  pKi: 5.51
- molecular.string: "O=C(NN=Cc1c(Cl)cccc1Cl)c1cc(Br)c(Br)[nH]1"
  pKi: 5.28

Record pKi for all entries; do not skip any.
1. CC(C)C=C1C(=O)C(=O)c2ccccc2C1=O
2. Cn1c(C(=O)NN=Cc2ccc(O)cc2)cc(Br)c1Br
3. COc1ccc(C=NNC(=O)c2cc(Br)c(Br)[nH]2)cc1
4. C#CCN(C)Cc1ccc(CC(=O)NC2CC(C)(C)N(O)C(C)(C)C2)cc1

Found:
[4.74, 4.88, 5.18, 4.66]
